system: Bacillus pumilus; assay: Antibacterial activity against penicillin-susceptible Bacillus pumilus CMCC63202 assessed as inhibition of bacterial growth incubated for 20 hrs by CLSI protocol based microdilution method; assay type: functional
Measurement Label: MIC

Problem: Provide measured MIC value, entry: `C=C1OC(=O)C(CNC(=O)CCCCC)=C1c1ccc(F)cc1`
Result: 256 µg/mL

Problem: Report MIC for `C=C1OC(=O)C(CNC(=O)c2ccc(Br)cc2)=C1c1ccc(F)cc1`
Result: > 512 µg/mL

Problem: Please supply the value of reported MIC for the item `C=C1OC(=O)C(CNC(=O)Cc2ccccc2)=C1c1ccc(F)cc1`
Result: > 512 µg/mL

Problem: Name the recorded MIC of the item `C=C1OC(=O)C(CNC(=O)CCCCCCCC)=C1c1ccc(F)cc1` in your answer.
Result: > 512 µg/mL

Problem: Report MIC for `C=C1OC(=O)C(CNC(=O)c2ccc(C)cc2)=C1c1ccccc1Br`
Result: > 512 µg/mL

Problem: Return the recorded MIC value; entry: `C=C1OC(=O)C(CNC(=O)CC)=C1c1ccc(F)cc1`
Result: 256 µg/mL

Problem: Supply reported MIC belonging to this compound: `C=C1C(c2ccc(F)cc2)=C(CNC(=O)c2ccc(C)cc2)C(=O)N1CCCC`
Result: > 512 µg/mL

Problem: Provide one value: measured MIC of `C=C1C(c2ccc(F)cc2)=C(CNC(=O)c2ccc(C)cc2)C(=O)N1CCC`
Result: 512 µg/mL

Problem: Supply recorded MIC for `C=C1C(c2ccc(F)cc2)=C(CNC(=O)c2ccc(C)cc2)C(=O)N1c1ccccc1Cl` here.
Result: 512 µg/mL

Problem: Query MIC for `C=C1OC(=O)C(CNC(=O)c2ccccc2Cl)=C1c1ccc(F)cc1`
Result: > 512 µg/mL

Problem: Give the reported value of MIC for this record: `C=C1OC(=O)C(CNC(=O)c2ccc(C)cc2)=C1c1ccc(Br)cc1`
Result: > 512 µg/mL

Problem: Give the measured MIC for `C=C1OC(=O)C(CNC(=O)c2cccc(F)c2)=C1c1ccc(F)cc1`
Result: > 512 µg/mL

Problem: Indicate the recorded MIC value for this compound: `C=C1OC(=O)C(CNC(=O)c2ccc(C)cc2)=C1c1ccccc1F`
Result: > 512 µg/mL

Problem: Identify measured MIC corresponding to `C=C1OC(=O)C(CNC(=O)c2ccc(Cl)cc2)=C1c1ccc(F)cc1`
Result: > 512 µg/mL
